Source listed as ChEMBL document CHEMBL3217650.

Could you please report measured pKa for the items listed next?
assay: Dissociation constant, pKa of the compound; format: physicochemical

*Q* Supply reported pKa belonging to this compound: O=C([C@H]1C[C@@H]1c1ccccc1)N1CCN(c2ccccc2)CC1 (racemic)
*A* < 2.5

*Q* Supply reported pKa belonging to this compound: CCN(CC)CCNC(=O)[C@H]1C[C@@H]1c1ccccc1 (racemic)
*A* 8.9

*Q* Supply reported pKa belonging to this compound: O=C([C@H]1C[C@@H]1c1ccccc1)N1CCC(N2CCCC2)CC1 (racemic)
*A* 9.3

*Q* Supply reported pKa belonging to this compound: O=C(NCCN1CCCC1)[C@H]1C[C@@H]1c1ccccc1 (racemic)
*A* 9.2
